assay: Cytotoxicity; assay type: cell-based; conditions: human, TZM-bl cells

query_smiles	CC50 at 72 h, µM
NC[C@H](NC(=O)c1ccc(-c2cc(F)c(Cl)c(F)c2)[nH]1)c1nc(CCO)cs1	32.8

====

assay: Cytotoxicity; format: cell-based; conditions: human, TZM-bl cells

query_smiles	CC50 at 3 days
N#Cc1ccc(-c2ccc(C(=O)N[C@@H](CN)c3nc(CO)cs3)[nH]2)cc1	> 82 µM

====

assay: Cytotoxicity; type: cell-based; conditions: human, U87-CD4-CXCR4 cells

molecule	units	CC50 at 3 days
NC[C@H](NC(=O)c1ccc(-c2ccc(C(F)(F)F)cc2F)[nH]1)c1nc(CCO)cs1 [Compound 13]	µM	33.5
